Recorded measurements of MIC, one per entry
Tested on: Clostridium perfringens
Assay: microbe, parasite or virus in culture
Format: cell-based
Settings: Clostridium perfringens, read-out: MIC value against Clostridium perfringens, strain F6-2-1 (F-type)
Only the number, expressed in µg/mL, is required.

structure-as-smiles	MIC [µg/mL]
CCC[C@@H]1C[C@@H](C(=O)N[C@@H]([C@H]2O[C@H](SC)[C@H](O)[C@@H](O)[C@H]2O)[C@@H](C)O)N(C)C1	128
O=C(Nc1ccc(C(F)(F)F)c(Cl)c1Cl)c1cc(Cl)ccc1O	0.5
C[C@H]1c2cccc(O)c2C(=O)C2=C(O)[C@]3(O)C(=O)C(C(N)=O)=C(O)[C@@H](N(C)C)[C@@H]3[C@@H](O)[C@@H]21	16

As a next step, examine the molecule that follows.
(Q) I have this molecule here, "C=C[C@]1(C)C[C@@H](OC(=O)CSCCN(CC)CC)[C@]2(C)[C@H](C)CC[C@]3(CCC(=O)[C@H]32)[C@@H](C)[C@@H]1O" , and I need its recorded MIC.
(A) 0.5

###

Experiment: Pharmacokinetics in rabbit plasma after intramuscular injection
Format: in vivo, rabbits
Settings: male, Chinese white, rabbit, plasma, im, 20 mg/kg, rabbit plasma, intramuscular injection, 20 mg/kg b.w.; read-out: Cmax
experimental-readout: Cmax
Express your answer as a number followed by its unit.

(Q) Fill in the blank: the reported Cmax of O=C(Nc1ccc(C(F)(F)F)c(Cl)c1Cl)c1cc(Cl)ccc1O [BAB159] is ____.
(A) 207 ng/mL

###

Test system: Clostridium perfringens
Experiment: microbe, parasite or virus in culture
Format: cell-based
Details: Clostridium perfringens, read-out: MIC value against Clostridium perfringens, strain H14-2 (H-type)
experimental-readout: MIC (µg/mL)
Give just the numeric value; µg/mL need not be written.

(Q) What value of MIC has been reported for the following compound? CCC[C@@H]1C[C@@H](C(=O)N[C@@H]([C@H]2O[C@H](SC)[C@H](O)[C@@H](O)[C@H]2O)[C@@H](C)O)N(C)C1 [LIN, Lincomycin]
(A) 8

###

System: Clostridium perfringens
Test: microbe, parasite or virus in culture
Type: cell-based
Conditions: Clostridium perfringens, read-out: MIC value against Clostridium perfringens, strain F6-2-2 (F-type)
experimental-readout: MIC (µg/mL)
Quick reminder: number only, in µg/mL, skip the unit.

// below: answered compounds
structure-as-smiles	unit-spec	result-value
O=C(Nc1ccc(C(F)(F)F)c(Cl)c1Cl)c1cc(Cl)ccc1O	µg/mL	0.25
C[C@H]1c2cccc(O)c2C(=O)C2=C(O)[C@]3(O)C(=O)C(C(N)=O)=C(O)[C@@H](N(C)C)[C@@H]3[C@@H](O)[C@@H]21	µg/mL	16
CCC[C@@H]1C[C@@H](C(=O)N[C@@H]([C@H]2O[C@H](SC)[C@H](O)[C@@H](O)[C@H]2O)[C@@H](C)O)N(C)C1	µg/mL	128

(Q) Given the compound "CC[C@H]1OC(=O)C[C@@H](O)[C@H](C)[C@@H](O[C@@H]2O[C@H](C)[C@@H](O)[C@H](N(C)C)[C@H]2O)[C@@H](CCN2C[C@H](C)C[C@H](C)C2)C[C@@H](C)C(=O)/C=C/C(C)=C/[C@@H]1CO[C@@H]1O[C@H](C)[C@@H](O)[C@@H](OC)[C@H]1OC" , what is its reported MIC?
(A) 128

(Q) What about this compound? "C=C[C@]1(C)C[C@@H](OC(=O)CSCCN(CC)CC)[C@]2(C)[C@H](C)CC[C@]3(CCC(=O)[C@H]32)[C@@H](C)[C@@H]1O"
(A) 0.5

###

Assay: Pharmacokinetics in rabbit plasma after intramuscular injection
Format: in vivo, rabbits
Conditions: male, Chinese white, rabbit, plasma, im; rabbits, intramuscular injection, 20 mg/kg b.w.
experimental-readout: half-life (h)
Report only the number, with the unit h understood.

(Q) Any idea what half-life was measured for "O=C(Nc1ccc(C(F)(F)F)c(Cl)c1Cl)c1cc(Cl)ccc1O" ?
(A) 16.1

###

System: Clostridium perfringens
Experiment: microbe, parasite or virus in culture
Assay type: cell-based
Conditions: Clostridium perfringens, read-out: MIC value against Clostridium perfringens, strain H16 (H-type)
experimental-readout: MIC (mg/L)
Express your answer in mg/L, writing the number without its unit.

A selection of reference data follows.
compound	MIC, mg/L
O=C(Nc1ccc(C(F)(F)F)c(Cl)c1Cl)c1cc(Cl)ccc1O [BAB159]	0.25
C[C@H]1c2cccc(O)c2C(=O)C2=C(O)[C@]3(O)C(=O)C(C(N)=O)=C(O)[C@@H](N(C)C)[C@@H]3[C@@H](O)[C@@H]21 [DOX, Doxycycline]	8

(Q) Need MIC of CC[C@H]1OC(=O)C[C@@H](O)[C@H](C)[C@@H](O[C@@H]2O[C@H](C)[C@@H](O)[C@H](N(C)C)[C@H]2O)[C@@H](CCN2C[C@H](C)C[C@H](C)C2)C[C@@H](C)C(=O)/C=C/C(C)=C/[C@@H]1CO[C@@H]1O[C@H](C)[C@@H](O)[C@@H](OC)[C@H]1OC [TMS, Tilmicosin] , thanks.
(A) 128

(Q) Similarly, C=C[C@]1(C)C[C@@H](OC(=O)CSCCN(CC)CC)[C@]2(C)[C@H](C)CC[C@]3(CCC(=O)[C@H]32)[C@@H](C)[C@@H]1O [TIA, Tiamulin] ?
(A) 4

(Q) Item: CCC[C@@H]1C[C@@H](C(=O)N[C@@H]([C@H]2O[C@H](SC)[C@H](O)[C@@H](O)[C@H]2O)[C@@H](C)O)N(C)C1 [LIN, Lincomycin]
(A) 4

###

System: Clostridium perfringens
Experiment: microbe, parasite or virus in culture
Format: cell-based
Details: Clostridium perfringens, read-out: MIC value against Clostridium perfringens, strain H14-2 (H-type)
Quick list: MIC per entry.
Quick note: give the figure in µg/mL, leave out the unit.

Here is how some compounds turned out for MIC.
structure-as-smiles	assay-target	MIC / µg/mL
CC[C@H]1OC(=O)C[C@@H](O)[C@H](C)[C@@H](O[C@@H]2O[C@H](C)[C@@H](O)[C@H](N(C)C)[C@H]2O)[C@@H](CCN2C[C@H](C)C[C@H](C)C2)C[C@@H](C)C(=O)/C=C/C(C)=C/[C@@H]1CO[C@@H]1O[C@H](C)[C@@H](O)[C@@H](OC)[C@H]1OC	Clostridium perfringens	128
C=C[C@]1(C)C[C@@H](OC(=O)CSCCN(CC)CC)[C@]2(C)[C@H](C)CC[C@]3(CCC(=O)[C@H]32)[C@@H](C)[C@@H]1O	Clostridium perfringens	8

(Q) Short answer please: MIC, Clostridium perfringens, entry "O=C(Nc1ccc(C(F)(F)F)c(Cl)c1Cl)c1cc(Cl)ccc1O"
(A) 0.5

(Q) Further, for "C[C@H]1c2cccc(O)c2C(=O)C2=C(O)[C@]3(O)C(=O)C(C(N)=O)=C(O)[C@@H](N(C)C)[C@@H]3[C@@H](O)[C@@H]21" ?
(A) 8
